# tested.on: T1, recombinant extracellular domain of the predominant human CD22-beta isoform (CD22-ECD) (human, UniProt P20273 20-687, CHO-expressed glycoprotein. Capture on an SA chip implies biotinylation, but the patent does not state it for SPR.)
# T1 construct: Expressed in CHO-3E7 cells, IMAC and SEC purified, monomeric fraction; Results say it was immobilized onto a CM5 dextran chip; also called human CD22-ECD; hCD22 ecto-domain
# T1 sequence: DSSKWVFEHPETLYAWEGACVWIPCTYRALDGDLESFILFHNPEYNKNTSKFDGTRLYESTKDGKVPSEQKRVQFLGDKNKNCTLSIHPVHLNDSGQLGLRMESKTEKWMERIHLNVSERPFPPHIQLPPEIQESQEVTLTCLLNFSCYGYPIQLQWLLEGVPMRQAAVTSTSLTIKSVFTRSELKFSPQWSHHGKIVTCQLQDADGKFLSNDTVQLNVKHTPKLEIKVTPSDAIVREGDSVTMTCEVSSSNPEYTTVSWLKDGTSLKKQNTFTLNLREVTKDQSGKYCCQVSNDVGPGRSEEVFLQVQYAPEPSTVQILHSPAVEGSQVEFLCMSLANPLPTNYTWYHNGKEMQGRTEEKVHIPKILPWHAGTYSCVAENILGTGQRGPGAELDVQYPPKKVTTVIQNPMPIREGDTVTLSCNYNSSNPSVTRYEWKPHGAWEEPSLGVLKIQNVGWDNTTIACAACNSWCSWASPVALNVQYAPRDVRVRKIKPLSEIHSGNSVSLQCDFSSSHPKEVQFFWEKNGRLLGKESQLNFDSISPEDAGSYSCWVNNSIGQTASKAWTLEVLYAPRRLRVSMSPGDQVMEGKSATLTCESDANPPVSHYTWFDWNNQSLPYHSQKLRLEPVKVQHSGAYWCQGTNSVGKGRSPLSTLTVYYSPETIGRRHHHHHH
# test.details: SPR, Biacore T200, VHH over immobilized CD22-ECD
# key: entry, value: Kd
Numbers only; they are read as nM.

Would you kindly share the measured Kd for hCD221ug-87 (VHH, single biotin at the VHH C-terminal (biotinylation signal sequence), llama VHH, expressed in E. coli TG1, IMAC purified, monomeric SEC fraction; also called VHH # 9) VHH: QVQLVESGGGLVQPGGSLRLSCADSGSIFRIAVMNWYRQAPGKERELVAVITSGGETHYAASVKGRFTISRDNAKNTMYLQMNSLKPEDTAVYYCNAKWGRDEYWGQGTQVTVSS ? 0.647

Now give it for hCD221ug-36 (VHH, single biotin at the VHH C-terminal (biotinylation signal sequence), llama VHH, expressed in E. coli TG1, IMAC purified, monomeric SEC fraction; also called VHH # 22; 4-hCD22 1ug-36) VHH: EVQLVDSGGGLVQAGGSLRVSCEASGITFSRAAMGWYRQRPGKERERVAVVNSDSSTIYADSVKGRFTISRDNAKNTVYLQMNSLEPEDTAVYYCWSPGFGSYWGQGTQVTVSS too. 9.59

Now give it for hCD22pas-64 (VHH, single biotin at the VHH C-terminal (biotinylation signal sequence), llama VHH, expressed in E. coli TG1, IMAC purified, monomeric SEC fraction; also called VHH # 25; 7-hCD22 pas-64) VHH: QVQLVESGGGLVQAGGSLRLSCAASGSTFSLNTMAWYRQAPGNQREYVAAASSDGYTNYADSVRGRFTISRDNDKNTMYLQMNSLRPEDTAVYYCTWGTGRFADYIYWGQGTQVTVSS too. 250
